biological target: human A3AR (Homo sapiens, UniProt P0DMS8); construct: expressed in transfected cells; assay: LOPAC library primary screen: single concentration (10 μM) inhibition of 25 nM CA200645 binding, PHERAstar FS
Consider the following compounds and their measured % 25 nM CA200645 binding readings.
Field format: number, assumed %, no unit text.

# annotated cases, reported % 25 nM CA200645 binding shown
Consider the compound N#C/C(=C\c1ccc(O)c(O)c1)C(=O)c1ccc(O)c(O)c1 [Tyrphostin AG 538] and give its measured % 25 nM CA200645 binding.
90.2

Also, NNC(=O)c1ccc(O)cc1 [4-Hydroxybenzhydrazide] please.
105.3

Also, `O=C(O)c1cc([N+](=O)[O-])ccc1NCCCc1ccccc1` please.
120.8

New cases:
Consider the compound CC(=O)O[C@]1(C(C)=O)CC[C@H]2[C@@H]3C=C(Cl)C4=CC(=O)[C@@H]5C[C@@H]5[C@]4(C)[C@H]3CC[C@@]21C [Cyproterone acetate] and give its measured % 25 nM CA200645 binding.
95.6

Also, CN(C)CCOC(C)(c1ccccc1)c1ccccn1 (centres unmarked) [Doxylamine succinate] please.
107.4

Also, N[C@H](C(=O)O)c1cc(O)cc(O)c1 [(S)-3,5-Dihydroxyphenylglycine] please.
102.7

Also, Cc1ncsc1CCCl.Cl [Chlormethiazole hydrochloride] please.
84.7

Also, COc1ccccc1CN[C@@H]1CCCN[C@@H]1c1ccccc1.Cl.Cl.O [CP-100263 dihydrochloride hydrate] please.
98.5

====

Biological target: human A3AR (Homo sapiens, UniProt P0DMS8)
Construct: expressed in transfected cells
Sequence (P0DMS8 1-318): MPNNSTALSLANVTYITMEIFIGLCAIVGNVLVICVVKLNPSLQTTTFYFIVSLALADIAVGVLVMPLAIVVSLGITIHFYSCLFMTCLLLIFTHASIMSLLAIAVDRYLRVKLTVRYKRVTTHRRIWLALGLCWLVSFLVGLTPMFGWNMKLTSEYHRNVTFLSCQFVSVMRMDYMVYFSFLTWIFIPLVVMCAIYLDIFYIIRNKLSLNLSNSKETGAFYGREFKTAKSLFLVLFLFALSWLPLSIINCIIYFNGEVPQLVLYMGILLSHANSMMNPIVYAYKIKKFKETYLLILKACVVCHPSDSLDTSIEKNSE
Experiment: LOPAC library primary screen: single concentration (10 μM) inhibition of 25 nM CA200645 binding, PHERAstar FS
Where a name gives a salt, the structure may show the parent alone.
Consider the following compounds and their measured % 25 nM CA200645 binding readings.
Field format: number, assumed %, no unit text.

Please state recorded % 25 nM CA200645 binding (tested on human A3AR (Homo sapiens, UniProt P0DMS8)) of CCN1CCCC1CNC(=O)c1cc(S(=O)(=O)CC)c(N)cc1OC (stereo not drawn) [Amisulpride]
98.0

Also, CN(C)c1ccc(/C=C2\C(=O)Nc3ccccc32)cc1 [SU 4312] please.
53.2

Also, O=c1[nH]c2ccccc2n1C1CCN(CCCC(c2ccc(F)cc2)c2ccc(F)cc2)CC1 [Pimozide] please.
78.2

Also, Cl.NCCc1ccc(O)cc1 [4-Hydroxyphenethylamine hydrochloride] please.
98.7

Also, O.O=c1cc(-c2ccccc2)oc2c(O)c(O)ccc12 [7,8-Dihydroxyflavone hydrate] please.
68.2

Also, CSc1ccc(C(=O)c2[nH]c(=O)[nH]c2C)cc1 [Enoximone] please.
102.3

Also, CO/N=C(\C(=O)N[C@@H]1C(=O)N2C(C(=O)O)=C(COC(C)=O)CS[C@H]12)c1csc(N)n1 [Cefotaxime sodium] please.
94.2

Also, O=[N+]([O-])c1cc(O)c(O)c([N+](=O)[O-])c1 [3,5-Dinitrocatechol] please.
100.0

New cases:
Please state recorded % 25 nM CA200645 binding (tested on human A3AR (Homo sapiens, UniProt P0DMS8)) of NC(CCP(=O)(O)O)C(=O)O (racemic) [(±)-2-Amino-4-phosphonobutyric acid]
99.9

Also, Clc1cnc(Oc2ccc(Oc3ncc(Cl)cc3Cl)cc2)c(Cl)c1 [TCPOBOP] please.
93.7

Also, Cl.NCC(O)c1ccc(O)cc1 (racemic) [(±)-Octopamine hydrochloride] please.
103.0

Also, CC(=O)CCCCn1c(=O)c2c(ncn2C)n(C)c1=O [Pentoxifylline] please.
81.9

Also, CCCCCCCCCCCCCCC[C@H](O)[C@H](N)CO (racemic) [DL-erythro-Dihydrosphingosine] please.
98.5

Also, CNCCC=C1c2ccccc2CCc2ccccc21 [Nortriptyline hydrochloride] please.
106.1

Also, N[C@@H](Cc1ccc(O)c(I)c1)C(=O)O [3-Iodo-L-tyrosine] please.
96.8

Also, N[C@@H](CCCC(=O)O)C(=O)O [L-2-aminoadipic acid] please.
101.5

Also, C[N+](C)(C)CCCCCC[N+](C)(C)C [Hexamethonium bromide] please.
99.4

Also, C=CC(N)CCC(=O)O (racemic) [(±)-gamma-Vinyl GABA] please.
96.9

The measurements presented in this section are drawn from paper PMC5733478.
